Listed here are binders together with their documented Kd.
Target: T1, cynomolgus IL-18BP (cynomolgus monkey)
T1 construct: also called cyno IL-18BP; cyIL-18BP
T1 chain: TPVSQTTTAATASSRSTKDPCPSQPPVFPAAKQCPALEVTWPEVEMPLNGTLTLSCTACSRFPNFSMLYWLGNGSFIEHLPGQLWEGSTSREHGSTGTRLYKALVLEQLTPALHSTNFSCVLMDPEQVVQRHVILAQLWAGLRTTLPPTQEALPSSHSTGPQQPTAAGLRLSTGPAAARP
Test: BLI, apparent KD
Number plus unit, in that order.

Q: I would be grateful if you could share the reported Kd for SA301a HC-I51S (antibody, name in Kabat numbering, V domains shown, IgG1 kappa) VH: QVQLQESGPGLVKPSQTLSLTCTVSGYSITSDYNSHWIRQPPGKGLEWIGYSHYSGSTNYNPSLKSRVTISRDTSKNQFSLKLSSVTAADTAVYYCARNYGSIYVNYFDYWGQGTLVTVSS VL: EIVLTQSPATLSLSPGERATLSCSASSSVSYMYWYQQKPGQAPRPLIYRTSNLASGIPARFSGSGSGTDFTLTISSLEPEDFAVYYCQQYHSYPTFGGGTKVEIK .
A: 0.82 nM

Q: Also SA301a HC-I51E (antibody, name in Kabat numbering, V domains shown, IgG1 kappa) VH: QVQLQESGPGLVKPSQTLSLTCTVSGYSITSDYNSHWIRQPPGKGLEWIGYEHYSGSTNYNPSLKSRVTISRDTSKNQFSLKLSSVTAADTAVYYCARNYGSIYVNYFDYWGQGTLVTVSS VL: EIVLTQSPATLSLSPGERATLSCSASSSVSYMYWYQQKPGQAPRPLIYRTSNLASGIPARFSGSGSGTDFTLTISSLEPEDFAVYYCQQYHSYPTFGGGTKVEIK ?
A: 0.95 nM

Q: Also SA301a HC-I51A (antibody, name in Kabat numbering, V domains shown, IgG1 kappa) VH: QVQLQESGPGLVKPSQTLSLTCTVSGYSITSDYNSHWIRQPPGKGLEWIGYAHYSGSTNYNPSLKSRVTISRDTSKNQFSLKLSSVTAADTAVYYCARNYGSIYVNYFDYWGQGTLVTVSS VL: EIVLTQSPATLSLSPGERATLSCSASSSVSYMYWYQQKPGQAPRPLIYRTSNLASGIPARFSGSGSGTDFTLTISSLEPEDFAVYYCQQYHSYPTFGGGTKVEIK ?
A: 0.81 nM

Q: Also SA301a HC-H52I (antibody, name in Kabat numbering, V domains shown, IgG1 kappa) VH: QVQLQESGPGLVKPSQTLSLTCTVSGYSITSDYNSHWIRQPPGKGLEWIGYIIYSGSTNYNPSLKSRVTISRDTSKNQFSLKLSSVTAADTAVYYCARNYGSIYVNYFDYWGQGTLVTVSS VL: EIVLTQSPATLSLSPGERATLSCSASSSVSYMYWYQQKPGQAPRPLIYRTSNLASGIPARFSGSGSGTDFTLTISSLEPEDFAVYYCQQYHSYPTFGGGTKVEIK ?
A: 1.72 nM

Q: Also SA301a HC-I51G (antibody, name in Kabat numbering, V domains shown, IgG1 kappa) VH: QVQLQESGPGLVKPSQTLSLTCTVSGYSITSDYNSHWIRQPPGKGLEWIGYGHYSGSTNYNPSLKSRVTISRDTSKNQFSLKLSSVTAADTAVYYCARNYGSIYVNYFDYWGQGTLVTVSS VL: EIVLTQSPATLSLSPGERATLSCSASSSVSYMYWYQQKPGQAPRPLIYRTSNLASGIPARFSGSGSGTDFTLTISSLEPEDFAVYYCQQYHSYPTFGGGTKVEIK ?
A: 0.87 nM

Reference for the values: patent US20250368745A1
